Parameter Post-emergence efficacy against PHBPU in %: see the listing below.
tested on: Pharbitis purpurea (PHBPU); assay: E. Herbicidal post-emergence efficacy, PHBPU; format: in vivo; settings: application rate 320 g/ha
Form entry: value (%) — number only.

Example cases with answers are listed next.
>  <Compound Smiles>
O=S(=O)(CCC(F)(F)F)Oc1ccccc1Oc1ncc(Cl)cn1

>  <Scale Unit>
%

>  <Measured>
100

$$$$
>  <Compound Smiles>
C=CCCS(=O)(=O)Oc1c(F)cccc1Oc1ncc(Cl)cn1

>  <Scale Unit>
%

>  <Measured>
90

$$$$
>  <Compound Smiles>
CCCCS(=O)(=O)Oc1ccccc1Oc1ncc(Cl)cn1

>  <Scale Unit>
%

>  <Measured>
100

$$$$

Query: # get_value(readout='Post-emergence efficacy against PHBPU in %', item= `Cc1cccc(Oc2ncc(Cl)cn2)c1OS(=O)(=O)CC1CC(F)(F)C1` )
Response: 90

Query: Reported Post-emergence efficacy against PHBPU in % for `Cc1cccc(Oc2ncc(Cl)cn2)c1OS(=O)(=O)CCC(F)=C(F)F` : what is it?
Response: 90

Query: Record request: Post-emergence efficacy against PHBPU in % value, item `Cc1cccc(Oc2ncc(Cl)cn2)c1OS(=O)(=O)CC=C(Cl)Cl`
Response: 100

Query: Fill in: Post-emergence efficacy against PHBPU in % of `O=S(=O)(CC=C(Cl)Cl)Oc1c(F)cccc1Oc1ncc(Cl)cn1` is ___
Response: 90

Query: Need Post-emergence efficacy against PHBPU in %, item `O=S(=O)(CCC(F)(F)F)Oc1c(F)cccc1Oc1ncc(F)cn1`
Response: 100

Query: Entry `O=S(=O)(CC1CC(F)(F)C1)Oc1c(F)cccc1Oc1ncc(Cl)cn1` : reported Post-emergence efficacy against PHBPU in % = ?
Response: 100

---

system: Kochia scoparia (KCHSC); experiment: B. Herbicidal post-emergence efficacy, KCHSC; format: in vivo; conditions: 320 g/ha, rated visually after about 3 weeks
Attribute Measured: Post-emergence efficacy against KCHSC in % (%)
Express your answer in %, writing the number without its unit.

A selection of reference data follows.
>  <Molecule>
O=S(=O)(CCC(F)(F)F)Oc1c(Br)cccc1Oc1ncc(F)cn1 [Example I-43]

>  <Measured>
90

$$$$
>  <Molecule>
O=S(=O)(CCCCl)Oc1c(F)cccc1Oc1ncc(Cl)cn1 [Example I-14]

>  <Measured>
100

$$$$
>  <Molecule>
Cc1cccc(Oc2ncc(Cl)cn2)c1OS(=O)(=O)CCC(F)(F)F [Example I-29]

>  <Measured>
100

$$$$
>  <Molecule>
O=S(=O)(CCC(F)=C(F)F)Oc1c(Br)cccc1Oc1ncc(Cl)cn1 [Example I-72]

>  <Measured>
100

$$$$
>  <Molecule>
O=S(=O)(CCC(F)(F)F)Oc1c(F)cccc1Oc1ncc(Br)cn1 [Example I-40]

>  <Measured>
90

$$$$
>  <Molecule>
O=S(=O)(CC1CC1(Cl)Cl)Oc1c(Br)cccc1Oc1ncc(Cl)cn1 (stereo not drawn) [Example I-77]

>  <Measured>
90

$$$$
>  <Molecule>
O=S(=O)(CCC(F)=C(F)F)Oc1c(Cl)cccc1Oc1ncc(Cl)cn1 [Example I-73]

>  <Measured>
100

$$$$
>  <Molecule>
O=S(=O)(CCCC(F)(F)F)Oc1c(F)cccc1Oc1ncc(Cl)cn1 [Example I-49]

>  <Measured>
90

$$$$

Okay, now this molecule:
Query: Sample N#Cc1cccc(Oc2ncc(Cl)cn2)c1OS(=O)(=O)CC1CC(F)(F)C1 [Example I-79] — what was its Post-emergence efficacy against KCHSC in %?
Response: 100

---

tested on: Kochia scoparia (KCHSC); assay: E. Herbicidal post-emergence efficacy, KCHSC; format: in vivo; conditions: application rate 80 g/ha
Attribute Measured: Post-emergence efficacy against KCHSC in %

>  <Compound>
O=S(=O)(CCC(F)=C(F)F)Oc1c(F)cccc1Oc1ncc(Cl)cn1 [Example I-70]

>  <Assay System>
Kochia scoparia (KCHSC)

>  <Measured>
90%

$$$$
>  <Compound>
O=S(=O)(CCCC(F)(F)C(F)(F)F)Oc1c(F)cccc1Oc1ncc(Cl)cn1 [Example I-68]

>  <Assay System>
Kochia scoparia (KCHSC)

>  <Measured>
80%

$$$$
>  <Compound>
O=S(=O)(CCC(F)(F)F)Oc1c(F)cccc1Oc1ncc(Br)cn1 [Example I-40]

>  <Assay System>
Kochia scoparia (KCHSC)

>  <Measured>
100%

$$$$
>  <Compound>
O=S(=O)(CCC(F)(F)F)Oc1c(F)cccc1Oc1ncc(Cl)cn1 [Example I-48]

>  <Assay System>
Kochia scoparia (KCHSC)

>  <Measured>
100%

$$$$
>  <Compound>
O=S(=O)(CCCC(F)(F)F)Oc1c(F)cccc1Oc1ncc(Cl)cn1 [Example I-49]

>  <Assay System>
Kochia scoparia (KCHSC)

>  <Measured>
100%

$$$$

Query: If you can, please state the reported Post-emergence efficacy against KCHSC in % value of O=S(=O)(CCC(F)(F)F)Oc1c(Cl)cccc1Oc1ncc(Cl)cn1 [Example I-38] .
Response: 100%

Query: For the compound Cc1cccc(Oc2ncc(Cl)cn2)c1OS(=O)(=O)CCC(F)=C(F)F [Example I-71] , what Post-emergence efficacy against KCHSC in % is on record?
Response: 100%

Query: # get_value(readout='Post-emergence efficacy against KCHSC in %', item= C=CCCS(=O)(=O)Oc1c(F)cccc1Oc1ncc(Cl)cn1 [Example I-50] )
Response: 80%

Query: Report Post-emergence efficacy against KCHSC in % for O=S(=O)(CCCC(F)(F)F)Oc1c(Cl)cccc1Oc1ncc(Cl)cn1 [Example I-39] please.
Response: 100%

Query: Tell me the measured Post-emergence efficacy against KCHSC in % of O=S(=O)(CCCC(F)(F)F)Oc1c(Cl)cccc1Oc1ncc(Br)cn1 [Example I-34] , please.
Response: 100%

---

tested on: Pharbitis purpurea (PHBPU); assay: C. Herbicidal pre-emergence efficacy, PHBPU; type: in vivo; conditions: 320 g/ha, scored after about 3 weeks
Attribute Measured: Pre-emergence efficacy against PHBPU (%)
Entry rule: numbers only, all in %.

>  <Compound>
O=S(=O)(CCC(F)(F)F)Oc1ccccc1Oc1ncc(Cl)cn1 [Example I-8]

>  <Pre-emergence efficacy against PHBPU [%]>
80

$$$$
>  <Compound>
O=S(=O)(CCCCCl)Oc1ccccc1Oc1ncc(Cl)cn1 [Example I-15]

>  <Pre-emergence efficacy against PHBPU [%]>
90

$$$$
>  <Compound>
N#Cc1cccc(Oc2ncc(Cl)cn2)c1OS(=O)(=O)CCCC(F)(F)F [Example I-81]

>  <Pre-emergence efficacy against PHBPU [%]>
100

$$$$
>  <Compound>
O=S(=O)(CCC(F)(F)F)Oc1c(F)cccc1Oc1ncc(Cl)cn1 [Example I-48]

>  <Pre-emergence efficacy against PHBPU [%]>
100

$$$$
>  <Compound>
O=S(=O)(CCCC(F)F)Oc1c(F)cccc1Oc1ncc(Cl)cn1 [Example I-56]

>  <Pre-emergence efficacy against PHBPU [%]>
100

$$$$

Query: Data request, read-out Pre-emergence efficacy against PHBPU, for O=S(=O)(CCCC(F)(F)F)Oc1c(F)cccc1Oc1ncc(Cl)cn1 [Example I-49]
Response: 100

Query: Give the measured Pre-emergence efficacy against PHBPU of O=S(=O)(CCC(F)(F)F)Oc1c(F)cccc1Oc1ncc(Br)cn1 [Example I-40] .
Response: 100

Query: Name the recorded Pre-emergence efficacy against PHBPU for O=S(=O)(CC1CC1)Oc1ccccc1Oc1ncc(Cl)cn1 [Example I-23] .
Response: 80

Query: Endpoint output: Pre-emergence efficacy against PHBPU of O=S(=O)(CCCC(F)(F)F)Oc1ccccc1Oc1ncc(Cl)cn1 [Example I-10] . Value?
Response: 100

---

# Post-emergence efficacy against ECHCG in % per entry
test system: Echinochloa crus-galli (ECHCG); test: E. Herbicidal post-emergence efficacy, ECHCG; assay type: in vivo; conditions: application rate 80 g/ha
# number only, unit % dropped from output

// worked examples, Post-emergence efficacy against ECHCG in % included
>  <Compound>
O=S(=O)(CCCC(F)(F)F)Oc1c(F)cccc1Oc1ncc(F)cn1 [Example I-42]

>  <Scale Unit>
%

>  <Measured>
100

$$$$
>  <Compound>
O=S(=O)(CCCCl)Oc1ccccc1Oc1ncc(F)cn1 [Example I-5]

>  <Scale Unit>
%

>  <Measured>
80

$$$$
>  <Compound>
N#Cc1cccc(Oc2ncc(Cl)cn2)c1OS(=O)(=O)CCCC(F)(F)F [Example I-81]

>  <Scale Unit>
%

>  <Measured>
80

$$$$
>  <Compound>
CCCCS(=O)(=O)Oc1ccccc1Oc1ncc(Cl)cn1 [Example I-6]

>  <Scale Unit>
%

>  <Measured>
90

$$$$
>  <Compound>
O=S(=O)(CCC1CC1)Oc1c(F)cccc1Oc1ncc(Cl)cn1 [Example I-55]

>  <Scale Unit>
%

>  <Measured>
90

$$$$
>  <Compound>
O=S(=O)(CCCC(F)F)Oc1c(F)cccc1Oc1ncc(Cl)cn1 [Example I-56]

>  <Scale Unit>
%

>  <Measured>
80

$$$$
>  <Compound>
O=S(=O)(CCCCl)Oc1c(F)cccc1Oc1ncc(Cl)cn1 [Example I-14]

>  <Scale Unit>
%

>  <Measured>
90

$$$$
>  <Compound>
O=S(=O)(CCCC(F)(F)F)Oc1c(F)cccc1Oc1ncc(Br)cn1 [Example I-41]

>  <Scale Unit>
%

>  <Measured>
90

$$$$

// below: Post-emergence efficacy against ECHCG in % requested for another compound
Query: Entry CC(C)CS(=O)(=O)Oc1ccccc1Oc1ncc(Cl)cn1 [Example I-7] has what Post-emergence efficacy against ECHCG in %?
Response: 80
